system: HCT-116; test: Cytotoxicity against human HCT-116 cells overexpressing human MDR1 assessed as DNA damage by measuring fluorescence intensity at 100 uM incubated for 30 mins by Hoechst 33342 staining accumulation assay; type: functional, cell-based
The source made the active and inactive calls. The rule behind the calls is not given here.
test-readout: Activity

Some entries whose results are on file:
NC(=O)c1ncn([C@@H]2O[C@H](CO)[C@@H](O)[C@H]2O)c1N [ACADESINE]; Active
NC(=O)c1ncn([C@@H]2O[C@H](CO)[C@@H](O)[C@H]2O)n1 [RIBAVIRIN]; Active
CC(C)[C@@H]1NC(=O)[C@@H]2CCCN2C1=O; Active
Nc1ncnc2c1ncn2[C@@H]1O[C@H](COP(=O)(O)O)[C@@H](O)[C@H]1O [ADENOSINE PHOSPHATE]; Active

Consider now this further compound.
Task item: Return value of Activity for input `Nc1ncnc2c1ncn2COCCO` , no commentary.
Reply: Active
